Target: IDH1 R132C (Homo sapiens, UniProt O75874, R132C)
Sequence (O75874 whole entry R132C): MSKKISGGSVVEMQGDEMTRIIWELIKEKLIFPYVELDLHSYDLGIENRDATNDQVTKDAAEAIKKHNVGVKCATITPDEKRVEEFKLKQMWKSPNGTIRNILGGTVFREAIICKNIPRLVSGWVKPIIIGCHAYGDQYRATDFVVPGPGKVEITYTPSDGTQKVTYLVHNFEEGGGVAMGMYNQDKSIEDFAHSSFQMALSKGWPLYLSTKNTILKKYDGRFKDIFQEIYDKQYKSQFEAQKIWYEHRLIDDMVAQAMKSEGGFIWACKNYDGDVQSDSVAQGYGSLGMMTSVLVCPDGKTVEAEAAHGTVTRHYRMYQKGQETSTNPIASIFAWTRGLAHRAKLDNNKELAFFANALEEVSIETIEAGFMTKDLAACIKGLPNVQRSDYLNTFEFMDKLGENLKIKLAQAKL
Experiment: IDH1 R132C enzymatic assay (NADPH depletion coupled to diaphorase/resazurin)
Assay type: biochemical
Details: IDH1 R132C enzymatic inhibition, IC50 class
pIC50: −log10 of the molar value.
recorded_metric: pIC50

Before answering, review these 4 worked examples.
{"compound": "CCc1cccc(CC)c1-n1c2c(cc(-c3nc(-c4ccncc4)cs3)c1=O)C(=O)CC(C)(C)C2", "pIC50": "5.30 to 6.00"}
{"compound": "CCc1cccc(CC)c1-n1c(C)c(C(=O)NC2CCC(N)CC2)cc(-c2nc(-c3ccc(Cl)cc3)cs2)c1=O (stereo not drawn)", "pIC50": "4.70 to 5.30"}
{"compound": "CCc1cccc(CC)c1-n1c(C(C)C)c(C(=O)N2CCN[C@@H](C(=O)OC)C2)cc(-c2nc(-c3ccc(Cl)cc3)cs2)c1=O", "pIC50": "> 6.52"}
{"compound": "CCc1cccc(CC)c1-n1c(C)c(C(=O)N2CCC(O)C2)cc(-c2nc(-c3ccc(Cl)cc3)cs2)c1=O (stereo not drawn)", "pIC50": "4.70 to 5.30"}

## Input Item "CC(C)c1ccccc1-n1c2c(cc(-c3nc(-c4ccc(Cl)cc4)cs3)c1=O)C(=O)CC(C)(C)C2" with IDH1 R132C (Homo sapiens, UniProt O75874, R132C) - pIC50?
## Output 6.00 to 6.52

## Input Item "CCc1cccc(CC)c1-n1c(CC(C)C)c(C(=O)N2CC(=O)N[C@@H](C(=O)O)C2)cc(-c2nc(-c3ccc(Cl)cc3)cs2)c1=O" with IDH1 R132C (Homo sapiens, UniProt O75874, R132C) - pIC50?
## Output 6.00 to 6.52

## Input Item CCc1cccc(CC)c1-n1c(CC(C)C)c(C(=O)N2CCC(CO)C2)cc(-c2nc(-c3ccc(Cl)cc3)cs2)c1=O (stereo not drawn) with IDH1 R132C (Homo sapiens, UniProt O75874, R132C) - pIC50?
## Output 6.00 to 6.52

## Input Item "CCc1cccc(CC)c1-n1c(CC(C)C)c(C(=O)N2CCNCC2)cc(-c2nc(-c3ccc(N4CCNCC4)cc3)c(C)s2)c1=O" with IDH1 R132C (Homo sapiens, UniProt O75874, R132C) - pIC50?
## Output < 4.70

## Input Item "CC(C)=Cc1c(C(=O)N2CCNCC2)cc(-c2nc(-c3ccc(Cl)cc3)cs2)c(=O)n1-c1cc(F)cnc1OC(C)C" with IDH1 R132C (Homo sapiens, UniProt O75874, R132C) - pIC50?
## Output > 6.52

## Input Item "CCc1cccc(CC)c1-n1c(CC(C)C)c(C(=O)N[C@@H]2CCC[C@H]2O)cc(-c2nc(-c3ccc(Cl)cc3)cs2)c1=O" with IDH1 R132C (Homo sapiens, UniProt O75874, R132C) - pIC50?
## Output 6.00 to 6.52

## Input Item "CCc1cccc(CC)c1-n1c(C)c(C(=O)N2CCN[C@@H](CO)C2)cc(-c2nc(-c3ccc(Cl)cc3)cs2)c1=O" with IDH1 R132C (Homo sapiens, UniProt O75874, R132C) - pIC50?
## Output 6.00 to 6.52

## Input Item CCc1cccc(CC)c1-n1c(C=C(C)C)c(C(=O)N2CCNC(CCO)C2)cc(-c2nc(-c3ccc(Cl)cc3)cs2)c1=O (stereo not drawn) with IDH1 R132C (Homo sapiens, UniProt O75874, R132C) - pIC50?
## Output > 6.52

## Input Item CCc1cccc(CC)c1-n1c(CC(C)C)c(C(=O)N2CCCCC2CO)cc(-c2nc(-c3ccc(Cl)cc3)cs2)c1=O (stereo not drawn) with IDH1 R132C (Homo sapiens, UniProt O75874, R132C) - pIC50?
## Output 6.00 to 6.52

## Input Item "CCc1cccc(CC)c1-n1c(CCOC)c(C(=O)N2CCNCC2)cc(-c2nc(-c3ccc(Cl)cc3)cs2)c1=O" with IDH1 R132C (Homo sapiens, UniProt O75874, R132C) - pIC50?
## Output > 6.52

## Input Item "Cc1ccc(N)cc1-n1c2c(cc(-c3nc(-c4ccc(Cl)cc4)cs3)c1=O)C(=O)CC(C)(C)C2" with IDH1 R132C (Homo sapiens, UniProt O75874, R132C) - pIC50?
## Output 5.30 to 6.00

## Input Item "CCc1cccc(CC)c1-n1c2c(cc(-c3nc(-c4ccc(C)cc4)cs3)c1=O)C(=O)CC(C)(C)C2" with IDH1 R132C (Homo sapiens, UniProt O75874, R132C) - pIC50?
## Output 6.00 to 6.52

## Input Item CCc1cccc(CC)c1-n1c(C=C(C)C)c(C(=O)N2CCNCC2C)cc(-c2nc(-c3ccc(Cl)cc3)cs2)c1=O (stereo not drawn) with IDH1 R132C (Homo sapiens, UniProt O75874, R132C) - pIC50?
## Output > 6.52

## Input Item "CCc1cccc(CC)c1-n1c(CC2CCNCC2)c(C(=O)NC)cc(-c2nc(-c3ccc(Cl)cc3)cs2)c1=O" with IDH1 R132C (Homo sapiens, UniProt O75874, R132C) - pIC50?
## Output 4.70 to 5.30

## Input Item "CCc1cccc(CC)c1-n1c2c(cc(-c3nc(-c4cccc(Cl)c4)cs3)c1=O)C(=O)CC(C)(C)C2" with IDH1 R132C (Homo sapiens, UniProt O75874, R132C) - pIC50?
## Output 5.30 to 6.00

## Input Item "CCc1cccc(CC)c1-n1c(CC(C)C)c(C(=O)N2CCNCC2)cc(-c2nc(-c3ccc(OC)cc3)c(C)s2)c1=O" with IDH1 R132C (Homo sapiens, UniProt O75874, R132C) - pIC50?
## Output 6.00 to 6.52
